- System Under Test: Cytochrome P450 3A4 (Homo sapiens, UniProt P08684)
- Sequence (P08684 whole entry): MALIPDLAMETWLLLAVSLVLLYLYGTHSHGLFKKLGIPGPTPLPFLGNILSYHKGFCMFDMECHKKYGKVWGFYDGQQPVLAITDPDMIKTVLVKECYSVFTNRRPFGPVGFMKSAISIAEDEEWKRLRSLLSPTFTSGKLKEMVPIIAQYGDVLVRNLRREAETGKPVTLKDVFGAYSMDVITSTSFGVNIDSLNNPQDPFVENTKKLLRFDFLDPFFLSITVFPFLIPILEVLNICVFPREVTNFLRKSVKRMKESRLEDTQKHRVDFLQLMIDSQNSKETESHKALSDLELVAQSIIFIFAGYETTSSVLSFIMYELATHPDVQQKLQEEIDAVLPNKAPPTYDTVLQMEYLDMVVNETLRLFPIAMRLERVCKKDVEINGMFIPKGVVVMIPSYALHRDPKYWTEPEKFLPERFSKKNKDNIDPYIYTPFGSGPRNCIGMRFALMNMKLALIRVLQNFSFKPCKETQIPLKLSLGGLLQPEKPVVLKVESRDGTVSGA
Attribute Measured: IC50

Given the molecule Cc1ccc([C@H](F)C(=O)N[C@H](c2ccc(C)c(OCC3(C#N)CC3)c2)[C@@H](C)C(=O)O)cc1 , write its reported IC50.
> 10 µM

====

- Procedure Text: Apparent permeability in human Caco-2 cells incubated for 2 hrs by LC/MS analysis
Measured Papp at 2 h, listed per entry.
# number only, unit ×10⁻⁶ cm/s dropped from output

Please list Papp at 2 h recorded for the compound Cc1ccc(CC(=O)N[C@H](c2ccc(C)c(OCC(C)(C)F)c2)[C@@H](C)C(=O)O)cc1
11

====

- Procedure Text: Metabolic stability in human liver microsomes assessed as compound remaining at 5 uM measured upto 60 mins
Attribute Measured: remaining at 1 h, 5 µM (%)
Write the value in % as a bare number.

Take a look at these entries with their results.
Cc1ccc(CC(=O)N[C@H](c2ccc(C)cc2)[C@@H](C)C(=O)O)cc1; 97
CCOc1cccnc1Cc1ccc(CC(=O)N[C@H](c2ccc(C)cc2)[C@@H](C)C(=O)O)cc1; 84

Please turn your attention to the following entry.
Report remaining at 1 h, 5 µM, nothing else, for this compound: Cc1ccc([C@@H](NC(=O)Cc2ccc(Cc3cccc(C)n3)cc2)[C@@H](C)C(=O)O)cc1.Cl
94

====

- Procedure Text: Apparent permeability in human Caco-2 cells incubated for 2 hrs by LC/MS analysis
Criterion: Papp at 2 h meeting or surpassing 200 nm/s. Met: MET. Not met: NOT MET.

Cc1ccc([C@@H](NC(=O)Cc2ccc(Cc3cccc(C)n3)cc2)[C@@H](C)C(=O)O)cc1.Cl; NOT MET
CCCOc1cc([C@@H](NC(=O)Cc2ccc(C)cc2)[C@@H](C)C(=O)O)ccc1C; NOT MET
Cc1ccc([C@@H](NC(=O)Cc2ccc(Cn3cccn3)cc2)[C@@H](C)C(=O)O)cc1; NOT MET
Cc1ccc([C@@H](NC(=O)Cc2ccc(Cc3ccccc3)cc2)[C@@H](C)C(=O)O)cc1; MET

Read the next record carefully.
API: above_or_equal(metric=Papp at 2 h, cutoff=200 nm/s) for item Cc1ccc(CC(=O)N[C@H](c2ccc(C)c(OCC3CCCCC3)c2)[C@@H](C)C(=O)O)cc1
NOT MET

====

- Procedure Text: in vivo
- Details: C57BL/6, mouse, po, 10 mg/kg
- Description: Oral bioavailability in C57BL/6 mouse at 10 mg/kg
Attribute Measured: bioavailability (%)
Your answer is read as %, so omit the unit and give the number.

Name the recorded bioavailability of the item COc1ccc(S(=O)(=O)Nc2ccc(N(CC(=O)N3CCSC3=O)S(=O)(=O)c3ccc(OC)cc3)c3ccccc23)cc1 in your answer.
68

====

Recorded IC50 by entry
- System Under Test: Cytochrome P450 2D6 (Homo sapiens, UniProt P10635)
- Sequence (P10635 whole entry): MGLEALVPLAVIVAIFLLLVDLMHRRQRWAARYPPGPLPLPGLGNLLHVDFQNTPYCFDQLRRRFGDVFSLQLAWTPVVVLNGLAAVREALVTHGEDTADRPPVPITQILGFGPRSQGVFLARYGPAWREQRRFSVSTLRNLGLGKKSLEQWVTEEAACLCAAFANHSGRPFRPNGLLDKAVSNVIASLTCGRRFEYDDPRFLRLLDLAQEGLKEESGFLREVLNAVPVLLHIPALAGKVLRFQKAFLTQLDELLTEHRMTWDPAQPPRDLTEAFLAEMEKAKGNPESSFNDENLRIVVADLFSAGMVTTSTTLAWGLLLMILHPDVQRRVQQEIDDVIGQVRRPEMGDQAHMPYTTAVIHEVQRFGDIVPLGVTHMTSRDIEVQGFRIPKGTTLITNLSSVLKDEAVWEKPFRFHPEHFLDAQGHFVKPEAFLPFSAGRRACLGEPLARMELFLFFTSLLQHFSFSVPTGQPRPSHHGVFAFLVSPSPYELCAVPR

Cc1ccc([C@H](F)C(=O)N[C@H](c2ccc(C)c(OCC3(C#N)CC3)c2)[C@@H](C)C(=O)O)cc1; > 10 µM

Let's switch to this compound now.
Give IC50 for the following compound: CCOc1cccnc1Cc1ccc([C@H](F)C(=O)N[C@H](c2ccc(C)cc2)[C@@H](C)C(=O)O)cc1
> 10 µM

====

pIC50: −log10 of the molar value.
The reader will find pIC50 measurements below, all made with Cytochrome P450 2C8 (Homo sapiens, UniProt P10632).
Sequence (P10632 whole entry): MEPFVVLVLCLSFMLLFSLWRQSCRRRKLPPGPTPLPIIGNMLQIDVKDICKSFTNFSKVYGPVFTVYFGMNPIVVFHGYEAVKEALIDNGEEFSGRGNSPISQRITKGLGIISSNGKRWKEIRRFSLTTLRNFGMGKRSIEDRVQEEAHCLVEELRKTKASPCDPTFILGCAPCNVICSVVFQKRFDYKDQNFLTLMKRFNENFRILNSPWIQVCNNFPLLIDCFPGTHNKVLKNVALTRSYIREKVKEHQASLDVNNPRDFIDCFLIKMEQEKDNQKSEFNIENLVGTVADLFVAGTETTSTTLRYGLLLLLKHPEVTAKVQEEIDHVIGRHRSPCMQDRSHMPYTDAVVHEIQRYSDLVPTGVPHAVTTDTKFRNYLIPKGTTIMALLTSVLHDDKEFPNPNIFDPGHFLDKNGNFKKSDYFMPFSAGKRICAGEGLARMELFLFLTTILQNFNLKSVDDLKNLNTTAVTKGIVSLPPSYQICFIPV

CCOc1cccnc1Cc1ccc([C@H](F)C(=O)N[C@H](c2ccc(C)cc2)[C@@H](C)C(=O)O)cc1; < 5.00

# context switch: different molecule, same pIC50
Write down pIC50 measured for item Cc1ccc([C@@H](NC(=O)[C@@H](F)c2ccc(Cl)cc2)[C@@H](C)C(=O)O)cc1OCC(C)(C)C#N
< 5.00

====

The compounds listed here are annotated with their remaining at 1 h, 5 µM.
- Procedure Text: Metabolic stability in human liver microsomes assessed as compound remaining at 5 uM measured upto 60 mins
Please reply with the bare figure in % and do not write the unit itself.

Before answering, review these 2 worked examples.
Cc1ccc([C@@H](NC(=O)Cc2ccc(Cc3cc(C)ccn3)cc2)[C@@H](C)C(=O)O)cc1.Cl; 92
COc1cccnc1Cc1ccc(CC(=O)N[C@H](c2ccc(C)cc2)[C@@H](C)C(=O)O)cc1.Cl; 91

State its remaining at 1 h, 5 µM: Cc1ccc([C@@H](NC(=O)Cc2ccc(Cl)cc2)[C@@H](C)C(=O)O)cc1OCC(C)(C)C#N
90

====

- Procedure Text: Apparent permeability in human Caco-2 cells incubated for 2 hrs by LC/MS analysis
Rule: Papp at 2 h under 10 ×10⁻⁶ cm/s gives Condition not met, otherwise Condition met.

Worked examples follow.
Cc1ccc([C@@H](NC(=O)[C@@H](F)c2ccc3c(c2)CCCC3)[C@@H](C)C(=O)O)cc1; Condition met
CCOc1cccnc1Cc1ccc(CC(=O)N[C@H](c2ccc(C)cc2)[C@@H](C)C(=O)O)cc1; Condition not met
Cc1ccc(CC(=O)N[C@H](c2ccc(C)c(OCC3CCCC3)c2)[C@@H](C)C(=O)O)cc1; Condition met
COc1cccnc1Cc1ccc(CC(=O)N[C@H](c2ccc(C)cc2)[C@@H](C)C(=O)O)cc1.Cl; Condition not met
Cc1ccc([C@@H](NC(=O)Cc2ccc(Cc3ncccc3C)cc2)[C@@H](C)C(=O)O)cc1.Cl; Condition met
Cc1ccc([C@@H](NC(=O)Cc2ccc(Cc3ccc(C)cn3)cc2)[C@@H](C)C(=O)O)cc1.Cl; Condition not met

Hi team, for Cc1ccc(CC(=O)N[C@H](c2ccc(C)cc2)[C@@H](C)C(=O)O)cc1 , is the recorded Papp at 2 h at or above 10 ×10⁻⁶ cm/s?
Condition not met

Check this compound for Papp at 2 h at or above 10 ×10⁻⁶ cm/s: Cc1ccc(CC(=O)N[C@H](c2ccc(C)c(OCC(C)(C)O)c2)[C@@H](C)C(=O)O)cc1
Condition not met
